system name: human ether-à-go-go-related gene (hERG) potassium channel (human, UniProt Q12809);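 note: peak tail current of the secondary pulse compared with the same well before compound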
Sequence (Q12809 whole entry, looked up): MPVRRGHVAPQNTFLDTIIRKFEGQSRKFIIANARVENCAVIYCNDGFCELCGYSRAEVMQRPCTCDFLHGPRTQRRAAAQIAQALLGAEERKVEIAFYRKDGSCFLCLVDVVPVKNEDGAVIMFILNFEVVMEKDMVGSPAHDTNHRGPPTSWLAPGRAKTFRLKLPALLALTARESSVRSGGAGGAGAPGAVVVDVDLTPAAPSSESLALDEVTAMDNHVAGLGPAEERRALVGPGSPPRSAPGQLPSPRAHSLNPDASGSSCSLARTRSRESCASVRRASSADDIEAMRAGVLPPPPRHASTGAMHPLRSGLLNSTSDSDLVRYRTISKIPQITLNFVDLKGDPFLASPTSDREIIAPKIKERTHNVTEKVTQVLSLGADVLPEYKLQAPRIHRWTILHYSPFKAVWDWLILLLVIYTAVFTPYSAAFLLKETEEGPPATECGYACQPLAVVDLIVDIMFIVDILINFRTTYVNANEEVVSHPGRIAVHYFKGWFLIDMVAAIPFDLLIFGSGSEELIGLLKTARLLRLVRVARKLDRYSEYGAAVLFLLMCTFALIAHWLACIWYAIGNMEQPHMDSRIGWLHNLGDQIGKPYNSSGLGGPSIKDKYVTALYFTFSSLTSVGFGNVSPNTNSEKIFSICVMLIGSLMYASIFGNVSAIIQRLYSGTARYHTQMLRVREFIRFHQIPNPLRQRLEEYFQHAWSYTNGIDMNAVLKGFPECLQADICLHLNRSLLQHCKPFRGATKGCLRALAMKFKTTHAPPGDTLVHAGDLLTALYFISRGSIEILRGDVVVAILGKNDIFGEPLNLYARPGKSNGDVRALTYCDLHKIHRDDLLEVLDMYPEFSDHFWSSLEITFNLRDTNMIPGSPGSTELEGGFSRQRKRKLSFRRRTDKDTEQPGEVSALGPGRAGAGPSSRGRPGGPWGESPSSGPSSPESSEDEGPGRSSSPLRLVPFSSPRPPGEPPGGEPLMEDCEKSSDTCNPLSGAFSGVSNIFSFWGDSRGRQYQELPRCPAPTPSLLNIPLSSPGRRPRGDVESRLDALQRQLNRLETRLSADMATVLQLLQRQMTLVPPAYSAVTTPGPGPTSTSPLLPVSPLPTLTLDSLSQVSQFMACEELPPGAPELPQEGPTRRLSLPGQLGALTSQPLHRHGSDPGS
assay method text: primary screen, population patch clamp on CHO cells stably expressing hERG; higher = less effect of the substance
About 14,000 (4.5%) of roughly 310,000 compounds showed an effect of 50% or more. The effect is printed as a negative number. Many of the other results were omitted from the sample, so strong results are more common in it than they were.
Overview of recorded hERG current change (%, negative = inhibition) at 10uM for various molecules
property: hERG current change (%, negative = inhibition) at 10uM

molecule	system name	measured result
COc1ccccc1NC(=O)C1=C(C)Nc2nnnn2C1c1ccncc1 (stereo not drawn)	human ether-à-go-go-related gene (hERG) potassium channel (human, UniProt Q12809)	-12.4%
COc1ccc(C2CC(c3ccccc3)=NN2C(=O)CN2CCN(Cc3ccccc3)CC2)cc1 (stereo not drawn)	human ether-à-go-go-related gene (hERG) potassium channel (human, UniProt Q12809)	-31.2%
O=C(Cn1c(=O)c2cccn2c2cccnc21)NCCCN1CCN(c2ccc(F)cc2)CC1	human ether-à-go-go-related gene (hERG) potassium channel (human, UniProt Q12809)	-76.4%
CN1CCN(CCNC(=O)Cn2c(=O)c3cccn3c3ccc(F)cc32)CC1	human ether-à-go-go-related gene (hERG) potassium channel (human, UniProt Q12809)	14.1%
CN(Cc1cccc(Cl)c1Cl)c1ccc(S(=O)(=O)N2CCCCC2)cc1[N+](=O)[O-]	human ether-à-go-go-related gene (hERG) potassium channel (human, UniProt Q12809)	5.82%
O=C(Cn1c(=O)c2cccn2c2ccc(F)cc21)NCCCN1CCN(c2ccccc2F)CC1	human ether-à-go-go-related gene (hERG) potassium channel (human, UniProt Q12809)	-50.5%
